Catalogue of compounds with associated IC50
target: UniProtKB Q01064; assay: In vitro HTRF PDE1 inhibition assay (PDE1B); assay type: biochemical; conditions: 100 nM cyclic GMP, calmodulin, 45 minutes at 37° C.

Completed entries (count: 4):
compound	reported_result
CC(C)n1ncc2c(=O)n3c(nc21)NC(c1ccc(C#N)cc1)CC3 (centres unmarked)	< 1 µM
O=c1c2cnn(C3CCOCC3)c2nc2n1CC(c1ccc(F)cc1)N2 (centres unmarked)	< 1 µM
O=c1c2noc(C3CCOCC3)c2nc2n1CCC(c1cccc(Cl)c1)N2 (centres unmarked)	10 to 100 µM
O=c1c2cnc(C3CC3)n2nc2n1CCC(c1ccc(Cl)cc1)N2 (centres unmarked)	< 1 µM

// below: IC50 requested for another compound
# lookup: Cc1ncc(CC2CCn3c(nc4c(cnn4C(C)C)c3=O)N2)cn1 (centres unmarked) on UniProtKB Q01064, IC50 = 1 to 10 µM

----------
target: PDE1B (Homo sapiens, UniProt Q01064); experiment: In vitro HTRF PDE1 inhibition assay (PDE1B); type: biochemical; conditions: 100 nM cyclic GMP, calmodulin, 45 minutes at 37° C.
Sequence (Q01064 whole entry): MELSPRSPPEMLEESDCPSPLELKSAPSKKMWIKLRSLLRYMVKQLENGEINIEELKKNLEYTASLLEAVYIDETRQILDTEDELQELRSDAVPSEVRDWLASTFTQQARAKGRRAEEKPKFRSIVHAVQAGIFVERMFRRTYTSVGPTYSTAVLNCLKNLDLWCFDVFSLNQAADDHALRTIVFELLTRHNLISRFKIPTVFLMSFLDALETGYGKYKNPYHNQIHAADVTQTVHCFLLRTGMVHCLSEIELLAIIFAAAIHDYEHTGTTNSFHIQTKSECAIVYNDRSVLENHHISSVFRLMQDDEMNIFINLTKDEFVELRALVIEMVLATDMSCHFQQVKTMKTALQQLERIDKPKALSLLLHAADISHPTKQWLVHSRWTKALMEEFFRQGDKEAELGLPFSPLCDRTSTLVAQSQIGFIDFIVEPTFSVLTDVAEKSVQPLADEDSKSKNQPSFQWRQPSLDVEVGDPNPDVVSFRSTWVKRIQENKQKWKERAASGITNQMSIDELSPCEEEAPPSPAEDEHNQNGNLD
metric: IC50

Completed entries (count: 3):
compound	IC50
Cc1ncc(C2CCn3c(nc4c(cnn4C(C)C)c3=O)N2)cn1 (stereo not shown)	1 to 10 µM
O=c1c2cnc(C3CCOCC3)n2nc2n1CCC(c1ccc(Cl)cc1)N2 (stereo not shown)	< 1 µM
Cc1cccc([C@H]2CCn3c(nn4c(C5CCOCC5)ncc4c3=O)N2)c1	< 1 µM

// below: IC50 requested for another compound
get_value(item= O=c1c2cnc(C3CCCC3)n2nc2n1CC[C@H](c1ccc(Cl)cc1)N2 , readout=IC50) returns < 1 µM

----------
Catalogue of compounds with associated IC50
molecular target: PDE1B (Homo sapiens, UniProt Q01064); experiment: In vitro HTRF PDE1 inhibition assay (PDE1B); assay type: biochemical; conditions: 100 nM cyclic GMP, calmodulin, 45 minutes at 37° C.

compound	metric	reported_result
C[C@H](O)c1ncc2c(=O)n3c(nn12)N[C@@H](c1ccc(Cl)cc1)CC3	IC50	1 to 10 µM
C[C@@H](O)c1ncc2c(=O)n3c(nn12)N[C@@H](c1ccc(Cl)cc1)CC3	IC50	< 1 µM
O=c1c2cnc(C3CCC3)n2nc2n1CCC(c1ccc(Cl)cc1)N2 (stereo not shown)	IC50	< 1 µM

// below: IC50 requested for another compound
get_value(item= CC(C)c1onc2c(=O)n3c(nc12)N[C@@H](c1ccc(Cl)cc1)CC3 , readout=IC50) returns 1 to 10 µM

----------
Catalogue of compounds with associated IC50
target: PDE1B (Homo sapiens); test: In vitro HTRF PDE1 inhibition assay (PDE1B); assay type: biochemical; conditions: 100 nM cyclic GMP, calmodulin, 45 minutes at 37° C.

get_value(item= O=c1c2cnn(CC3CC3)c2nc2n1CCC(c1ccc(Cl)cc1)N2 (stereo not drawn) , readout=IC50) returns < 1 µM

get_value(item= O=c1c2cnn(C3CCOCC3)c2nc2n1C[C@@H](c1ccc(Cl)cc1)N2 , readout=IC50) returns 1 to 10 µM

get_value(item= Cc1ccc(C2CCn3c(nc4c(cnn4C(C)C)c3=O)N2)cn1 (stereo not drawn) , readout=IC50) returns 1 to 10 µM

get_value(item= O=c1c2cnc(C3CCOCC3)n2nc2n1CC[C@@H](c1ccc(Cl)cc1F)N2 , readout=IC50) returns 1 to 10 µM

get_value(item= CO[C@@H](C)c1ncc2c(=O)n3c(nn12)N[C@@H](c1ccc(Cl)cc1)CC3 , readout=IC50) returns < 1 µM

get_value(item= CC(C)c1ncc2c(=O)n3c(nn12)NC(c1ccc(Cl)cc1)CC3 (stereo not drawn) , readout=IC50) returns < 1 µM

get_value(item= CCCn1ncc2c(=O)n3c(nc21)NC(c1ccc(Cl)cc1)CC3 (stereo not drawn) , readout=IC50) returns < 1 µM

get_value(item= CO[C@H]1CC[C@@H](c2ncc3c(=O)n4c(nn32)N[C@@H](c2ccc(Cl)cc2)CC4)CC1 , readout=IC50) returns 1 to 10 µM

get_value(item= O=c1c2cnn(C3CCCC3)c2nc2n1CCC(c1ccc(Cl)cc1)N2 (stereo not drawn) , readout=IC50) returns < 1 µM

get_value(item= CC(C)n1ncc2c(=O)n3c(nc21)N[C@@H](c1ccc(Cl)cc1)CC3 , readout=IC50) returns < 1 µM

get_value(item= O=c1c2cnc(C3CCOCC3)n2nc2n1CCC1(CCCc3ccccc31)N2 (stereo not drawn) , readout=IC50) returns 1 to 10 µM
